pIC50, BTK (Homo sapiens (Human), UniProt Q06187): measured values
Friendly reminder that pIC50 comes from taking -log10 of the concentration in mol/L.

- C=CC(=O)N1CC[C@]2(C1)C[C@H](n1c(NC(=O)c3ccc(-c4cnco4)s3)nc3cc(CN[C@H]4CC[C@H](O)CC4)ccc31)C2: 9.28
- C=CC(=O)N1CC[C@]2(C1)C[C@H](n1c(NC(=O)c3ccc(-c4ccnn4C)s3)nc3ccccc31)C2: 8.99
- C=CC(=O)N1CC[C@]2(C1)C[C@H](n1c(NC(=O)c3cc(C)cs3)nc3ccccc31)C2: 6.60

### Prompt GET /values?readout=pIC50&system=BTK (Homo sapiens (Human), UniProt Q06187)&item= "C=CC(=O)N1CC[C@]2(C1)C[C@@H](n1c(NC(=O)c3ccc(-c4cnco4)s3)nc3ccc(CO)cc31)C2"
### Response 7.93

### Prompt GET /values?readout=pIC50&system=BTK (Homo sapiens (Human), UniProt Q06187)&item= "C=CC(=O)N1CC[C@]2(C1)C[C@H](n1c(NC(=O)c3ccc(C(F)F)s3)nc3cc(CN[C@H]4C[C@H](O)C4)ccc31)C2"
### Response 8.94

### Prompt GET /values?readout=pIC50&system=BTK (Homo sapiens (Human), UniProt Q06187)&item= "C=CC(=O)N1CC[C@]2(C1)C[C@H](n1c(NC(=O)c3ccc(-c4cnco4)s3)nc3cc(N(C)C(C)=O)ccc31)C2"
### Response 9.19

### Prompt GET /values?readout=pIC50&system=BTK (Homo sapiens (Human), UniProt Q06187)&item= "C=CC(=O)N1CC[C@]2(C1)C[C@H](n1c(NC(=O)c3ccc(-c4ccnc(CO)c4)s3)nc3ccccc31)C2"
### Response 9.24

### Prompt GET /values?readout=pIC50&system=BTK (Homo sapiens (Human), UniProt Q06187)&item= "C=CC(=O)N1CC[C@]2(C1)C[C@H](n1c(NC(=O)c3ccc(C(F)F)s3)nc3cc(CNCC(C)(C)CO)ccc31)C2"
### Response 9.02

### Prompt GET /values?readout=pIC50&system=BTK (Homo sapiens (Human), UniProt Q06187)&item= "C=CC(=O)N1CC[C@]2(C1)C[C@H](n1c(NC(=O)c3ccc(-c4cnco4)s3)nc3ccc(Cl)cc31)C2"
### Response 8.70
